- TESTED_TARGET: T1, AtrR DNA-binding domain (AtrR-DBD) (Aspergillus fumigatus, UniProt Q4WI89 1-199)
- T1 sequence: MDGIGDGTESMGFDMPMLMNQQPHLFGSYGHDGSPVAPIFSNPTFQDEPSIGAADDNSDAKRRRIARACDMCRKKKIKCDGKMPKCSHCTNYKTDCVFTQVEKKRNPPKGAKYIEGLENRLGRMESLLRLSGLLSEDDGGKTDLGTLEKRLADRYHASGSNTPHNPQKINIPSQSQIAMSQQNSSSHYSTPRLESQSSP
- MEASUREMENT_DESCRIPTION: competition; 10-fold excess over biotinylated 34-bp probe (12-fold in Methods); Biotin EMSA: 25 mM Tris-HCl pH 7.5, 80 mM NaCl, 35 mM KCl, 5 mM MgCl2, 10% glycerol, 1 ug poly(dI-dC), 20 ul, 0.1 ug AtrR-DBD, 20 pmol probe, room temperature 30 min; 32P EMSA and footprinting as in cited reference 40
- REPORTED_CONDITIONS: protein: recombinant; chain copies: 2; blunt
ASSAY_READOUT: binding result

{"BINDER": "cyp51A 42-bp wild-type competitor (dsDNA) DNA 1: GTTGTCTCAGAATCACGCGGTCCGGATGTGTGCTGAGCCGAAT DNA 2: ATTCGGCTCAGCACACATCCGGACCGCGTGATTCTGAGACAAC", "RESULT": "binds"}
{"BINDER": "EcoRI mutant competitor (dsDNA) DNA 1: GTTGTCTCAGAATCACGCGGTCCGGATGTGGAATTCGCCGAAT DNA 2: ATTCGGCGAATTCCACATCCGGACCGCGTGATTCTGAGACAAC", "RESULT": "binds"}
{"BINDER": "SphI mutant competitor (dsDNA) DNA 1: GTTGTCTCAGAATCACGCGGGCATGCTGTGTGCTGAGCCGAAT DNA 2: ATTCGGCTCAGCACACAGCATGCCCGCGTGATTCTGAGACAAC", "RESULT": "no binding"}
{"BINDER": "DM competitor (dsDNA) DNA 1: GAATCACGCGGTATTGATGTGTGCTGAGTATAAT DNA 2: ATTATACTCAGCACACATCAATACCGCGTGATTC", "RESULT": "no binding"}
